Cited source: ChEMBL document CHEMBL2086380

test: Half life in mouse at 1 mg/kg, iv; type: ADME, organism-based; set-up: dose 1 mg/kg, route intravenous; details: in vivo
property measured: half-life (h)

# compound string, property measured, observed result
records = [
    ("O=C(NOCCO)c1ccc2[nH]ncc2c1Nc1ccc(I)cc1F", "half-life", 0.6),
    ("C[C@H](O)CONC(=O)c1oc2c(F)cncc2c1Nc1ccc(I)cc1F", "half-life", 2.3),
]

----------
test: Solubility of the compound at pH 6.5; type: physicochemical; conditions: buffer

# compound string, solubility
data = [
    ("O=C(NOCCO)c1ccc2[nH]ncc2c1Nc1ccc(I)cc1F", "80 µg/mL"),
]
